Overview of recorded Selectivity for various molecules
- Test target: Opioid receptors; delta & kappa (UniProt P41145+P41143)
- Sequence (P41143 whole entry, looked up): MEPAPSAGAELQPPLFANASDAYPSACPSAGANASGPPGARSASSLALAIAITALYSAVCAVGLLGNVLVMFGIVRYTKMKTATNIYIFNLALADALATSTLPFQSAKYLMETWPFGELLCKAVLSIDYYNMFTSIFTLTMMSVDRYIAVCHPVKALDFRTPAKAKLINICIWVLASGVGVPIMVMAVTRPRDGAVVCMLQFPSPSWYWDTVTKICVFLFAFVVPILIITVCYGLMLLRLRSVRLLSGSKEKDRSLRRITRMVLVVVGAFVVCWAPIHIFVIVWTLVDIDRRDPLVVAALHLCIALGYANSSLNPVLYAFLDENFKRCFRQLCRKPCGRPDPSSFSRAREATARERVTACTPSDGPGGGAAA
- Sequence (P41145 whole entry, looked up): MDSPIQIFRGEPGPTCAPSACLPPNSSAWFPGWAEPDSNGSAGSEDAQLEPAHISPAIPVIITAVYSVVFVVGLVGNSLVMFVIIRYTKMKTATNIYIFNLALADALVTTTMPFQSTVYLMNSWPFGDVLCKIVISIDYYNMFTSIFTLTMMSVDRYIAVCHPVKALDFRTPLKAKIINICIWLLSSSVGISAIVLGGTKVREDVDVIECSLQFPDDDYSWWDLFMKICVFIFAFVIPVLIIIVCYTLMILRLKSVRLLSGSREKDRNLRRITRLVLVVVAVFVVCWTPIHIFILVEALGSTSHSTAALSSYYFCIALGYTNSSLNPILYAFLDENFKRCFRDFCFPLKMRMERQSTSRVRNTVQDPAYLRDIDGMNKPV
- Method description: Selectivity ratio expressed as Ki of delta opioid receptor to that of kappa opioid receptor.
- Type: protein assay
- Conditions used: Cavia porcellus
Result type: Selectivity

Structure: O=C1c2ccc(O)cc2[C@@]23CCCC[C@H]2[C@@H]1N(Cc1ccc2ccccc2c1)CC3
Result type: Selectivity
Data value: > 13
--
Structure: C#CCOc1ccc2c(c1)[C@@]13CCCC[C@H]1[C@@H](C2=O)N(CC#C)CC3
Result type: Selectivity
Data value: > 20
--
Structure: CN1CC[C@]23CCCC[C@H]2[C@H]1Cc1ccc(CN)cc13
Result type: Selectivity
Data value: > 21
--
Structure: CN1CC[C@]23CCCC[C@H]2[C@H]1Cc1ccc(C#N)cc13
Result type: Selectivity
Data value: > 5
--
Structure: c1cc2c(cc1-c1nn[nH]n1)[C@@]13CCCC[C@H]1[C@@H](C2)N(CC1CCC1)CC3
Result type: Selectivity
Data value: > 12
--
Structure: CN1CC[C@]23CCCC[C@H]2[C@H]1Cc1ccc(-c2nn[nH]n2)cc13
Result type: Selectivity
Data value: > 26
